Origin of the recorded values: the supplement of paper PMC8617591

system: Mycobacterium tuberculosis Erdman (autoluminescent); test: GRinf, maximum normalised growth rate inhibition (three-drug combination) (unitless (-1 to 1)); higher = less effect (negative = killing); conditions: in vitro model: valerate; time point: constant (~7 days, model-specific)
MEASURED PROPERTY: GRinf
A bare number is all that is needed in reply.

Solved cases below.
| MOLECULE | GRinf |
| --- | --- |
| CC(C)/N=c1\cc2n(-c3ccc(Cl)cc3)c3ccccc3nc-2cc1Nc1ccc(Cl)cc1 [clofazimine] + CC[C@@H](CO)NCCN[C@@H](CC)CO [ethambutol] + CO[C@H]1/C=C/O[C@@]2(C)Oc3c(C)c(O)c4c(O)c(c(/C=N/N5CCN(C)CC5)c(O)c4c3C2=O)NC(=O)/C(C)=C\C=C\[C@H](C)[C@H](O)[C@@H](C)[C@@H](O)[C@@H](C)[C@H](OC(C)=O)[C@@H]1C [rifampicin] | 0.045 |
| CC(=O)NC[C@H]1CN(c2ccc(N3CCOCC3)c(F)c2)C(=O)O1 [linezolid] + O=[N+]([O-])c1cn2c(n1)OC[C@@H](OCc1ccc(OC(F)(F)F)cc1)C2 [pretomanid] + CO[C@H]1/C=C/O[C@@]2(C)Oc3c(C)c(O)c4c(O)c(c(/C=N/N5CCN(C)CC5)c(O)c4c3C2=O)NC(=O)/C(C)=C\C=C\[C@H](C)[C@H](O)[C@@H](C)[C@@H](O)[C@@H](C)[C@H](OC(C)=O)[C@@H]1C [rifampicin] | -0.015 |
| COc1nc2ccc(Br)cc2cc1[C@@H](c1ccccc1)[C@@](O)(CCN(C)C)c1cccc2ccccc12 [bedaquiline] + COc1c(N2C[C@@H]3CCCN[C@@H]3C2)c(F)cc2c(=O)c(C(=O)O)cn(C3CC3)c12 [moxifloxacin] + NC(=O)c1cnccn1 [pyrazinamide] | -0.131 |
| CC(C)/N=c1\cc2n(-c3ccc(Cl)cc3)c3ccccc3nc-2cc1Nc1ccc(Cl)cc1 [clofazimine] + CC[C@@H](CO)NCCN[C@@H](CC)CO [ethambutol] + CO[C@H]1/C=C/O[C@@]2(C)Oc3c(C)c(O)c4c(O)c(c(/C=N/N5CCN(C6CCCC6)CC5)c(O)c4c3C2=O)NC(=O)/C(C)=C\C=C\[C@H](C)[C@H](O)[C@@H](C)[C@@H](O)[C@@H](C)[C@H](OC(C)=O)[C@@H]1C [rifapentine] | 0.017 |

Next up:
Task item: Can you share its GRinf? I mean this molecule: COc1nc2ccc(Br)cc2cc1[C@@H](c1ccccc1)[C@@](O)(CCN(C)C)c1cccc2ccccc12 [bedaquiline] + CC(C)/N=c1\cc2n(-c3ccc(Cl)cc3)c3ccccc3nc-2cc1Nc1ccc(Cl)cc1 [clofazimine] + COc1c(N2C[C@@H]3CCCN[C@@H]3C2)c(F)cc2c(=O)c(C(=O)O)cn(C3CC3)c12 [moxifloxacin]
Reply: -0.201

====

tested on: Mycobacterium tuberculosis Erdman (autoluminescent); experiment: AUC25, normalised area under dose response up to IC25 (three-drug combination) (fraction (0-1)); higher = more potent at low dose; conditions: in vitro model: cholesterol-high 0.2 mM; time point: terminal (~4-5 doublings, model-specific)
Each entry below carries its reported AUC25.
A bare number is all that is needed in reply.

Task item: Can you share its AUC25? I mean this compound: CC(C)/N=c1\cc2n(-c3ccc(Cl)cc3)c3ccccc3nc-2cc1Nc1ccc(Cl)cc1 [clofazimine] + NNC(=O)c1ccncc1 [isoniazid] + CO[C@H]1/C=C/O[C@@]2(C)Oc3c(C)c(O)c4c(O)c(c(/C=N/N5CCN(C6CCCC6)CC5)c(O)c4c3C2=O)NC(=O)/C(C)=C\C=C\[C@H](C)[C@H](O)[C@@H](C)[C@@H](O)[C@@H](C)[C@H](OC(C)=O)[C@@H]1C [rifapentine]
Reply: 0.0744

Task item: Can you share its AUC25? I mean this compound: CC(C)/N=c1\cc2n(-c3ccc(Cl)cc3)c3ccccc3nc-2cc1Nc1ccc(Cl)cc1 [clofazimine] + CC[C@@H](CO)NCCN[C@@H](CC)CO [ethambutol] + CO[C@H]1/C=C/O[C@@]2(C)Oc3c(C)c(O)c4c(O)c(c(/C=N/N5CCN(C6CCCC6)CC5)c(O)c4c3C2=O)NC(=O)/C(C)=C\C=C\[C@H](C)[C@H](O)[C@@H](C)[C@@H](O)[C@@H](C)[C@H](OC(C)=O)[C@@H]1C [rifapentine]
Reply: 0.0668

Task item: Can you share its AUC25? I mean this compound: COc1nc2ccc(Br)cc2cc1[C@@H](c1ccccc1)[C@@](O)(CCN(C)C)c1cccc2ccccc12 [bedaquiline] + CC(=O)NC[C@H]1CN(c2ccc(N3CCOCC3)c(F)c2)C(=O)O1 [linezolid] + CO[C@H]1/C=C/O[C@@]2(C)Oc3c(C)c(O)c4c(O)c(c(/C=N/N5CCN(C)CC5)c(O)c4c3C2=O)NC(=O)/C(C)=C\C=C\[C@H](C)[C@H](O)[C@@H](C)[C@@H](O)[C@@H](C)[C@H](OC(C)=O)[C@@H]1C [rifampicin]
Reply: 0.0921
